Item-by-item account of Anti-CD28 Fab (SEQ ID NOs: 696, 697) signal
Test Target: T1, Anti-CD28 Fab (SEQ ID NOs: 696, 697)
T1 construct: In the phage ELISA the Fab was biotinylated and captured on neutravidin coated plates
T1 sequence (VH, as listed by the source, chain 1 of 2): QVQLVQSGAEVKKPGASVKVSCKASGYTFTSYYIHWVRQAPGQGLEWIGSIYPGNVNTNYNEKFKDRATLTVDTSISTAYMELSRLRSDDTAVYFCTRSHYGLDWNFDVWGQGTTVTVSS
T1 sequence (VL, as listed by the source, chain 2 of 2): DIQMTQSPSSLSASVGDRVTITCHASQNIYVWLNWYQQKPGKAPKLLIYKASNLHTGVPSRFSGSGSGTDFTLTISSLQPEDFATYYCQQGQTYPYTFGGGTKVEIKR
Protocol: phage binding ELISA, clonal phage on biotinylated anti-CD28 Fab captured on neutravidin plates, anti-M13 HRP detection
Where no end group is shown, it is not given here.
Give a plain numeric answer without units written out.

Example results:
| Binder | Reported |
| --- | --- |
| YCDGHKPQYMEKCL (Peptide-87 library clone, tested as clonal phage supernatant) [Phage-844] | 1.76 |
| YCHGHLQEYMAKCL (Peptide-87 library clone, tested as clonal phage supernatant) [Phage-848] | 1.76 |
| YCDGHSQEYMLKCL (cysteine pairing not given here; also: displayed on phage by fusion to pIII, pIII and linker sequence not given here, Peptide-87 library clone, tested as clonal phage supernatant) [Phage-842] | 1.76 |
| YCEGHSAEYMLKCL (Peptide-87 library clone, tested as clonal phage supernatant) [Phage-851] | 1.75 |
| YCDGHIGEYMVKCL (Peptide-87 library clone, tested as clonal phage supernatant) [Phage-845] | 1.76 |

Data request: Request the reported Anti-CD28 Fab (SEQ ID NOs: 696, 697) signal associated with YCDGHIPEYLAKCL (cysteine pairing not given here; also: displayed on phage by fusion to pIII, pIII and linker sequence not given here, Peptide-87 library clone, tested as clonal phage supernatant) [Phage-841]
Data returned: 1.76

Data request: Request the reported Anti-CD28 Fab (SEQ ID NOs: 696, 697) signal associated with YCDGHHIEYLAKCL (Peptide-87 library clone, tested as clonal phage supernatant) [Phage-852]
Data returned: 1.75

Taken from patent US20260242478A1.
